The values you see were collected from ChEMBL document CHEMBL6096643.

Target: Tubulin (Homo sapiens) (UniProt P68371+Q9H4B7+P0DPH7+P68366+Q13509+Q71U36+P04350+Q3ZCM7+P07437+P68363+Q9BQE3+Q6PEY2+Q13885+Q9BVA1+Q9BUF5)
Experiment: Inhibition of [3H]colchicine binding to tubulin (unknown origin) at 5 uM relative to control
Assay type: protein-complex assay
Active and inactive are the calls of the source. The calls are words filed in the database; no cut-off is given here.
Quantity: inhibition

For orientation, consider the following solved cases.
{"columns": ["Compound", "inhibition"],
 "data": [
  ["COc1cc(/C=C\\c2ccccc2B(O)O)cc(OC)c1OC", "inactive"],
  ["COc1ccc(C(=O)c2cc(OC)c(OC)c(OC)c2)cc1B(O)O", "21%"],
  ["COc1ccc(C(=O)c2cc(OC)c(OC)c(OC)c2)cc1O [PHENSTATIN]", "86%"],
  ["COc1cc(/C=C\\c2cccc(B(O)O)c2)cc(OC)c1OC", "inactive"],
  ["COc1cc(/C=C\\c2ccc(B(O)O)cc2)cc(OC)c1OC", "6.4%"],
  ["COc1cc(C(=O)c2cnc(OC)c(B(O)O)c2)cc(OC)c1OC", "inactive"]
]}

Now, please, on to the next compound.
Notebook: "COc1cc(/C=C\c2cnc(OC)c(B(O)O)c2)cc(OC)c1OC" , inhibition read as inactive
